binders and their reported pIC50
System Tested: HLA-A*0201 (human)
Assay Protocol: inhibition of 125I-labelled probe peptide binding to purified HLA, gel filtration
Condition Label: remark: other sources report otherwise
Would you please state pIC50, meaning minus log10 of the concentration in mol/L, as a bare number?

Example entries and their recorded answers appear below.
So what's the measured pIC50 for this one? LMLLRLSEPV (modifications not checked) [Peptide 1418.43 (HuK2.121.V10; PSA.117.V10) …]
8.94

So what's the measured pIC50 for this one? LMLLRLSEPA (modifications not checked) [Peptide 63.0014 (HuK2.121; PSA.117) …]
6.70

Others:
So what's the measured pIC50 for this one? SLQCVSLHV (modifications not checked) [Peptide 1418.19 (HuK2.170.V9) …]
7.25

So what's the measured pIC50 for this one? SLQCVSLHLL (modifications not checked) [Peptide 1419.66 (HuK2.170) …]
6.58
